Where these numbers come from: patent US11897867B2

I'd be grateful if you could share measured IC50 for these entries.
Test Target: human full length PDE3A (Homo sapiens, UniProt Q14432)
Sequence (Q14432 whole entry): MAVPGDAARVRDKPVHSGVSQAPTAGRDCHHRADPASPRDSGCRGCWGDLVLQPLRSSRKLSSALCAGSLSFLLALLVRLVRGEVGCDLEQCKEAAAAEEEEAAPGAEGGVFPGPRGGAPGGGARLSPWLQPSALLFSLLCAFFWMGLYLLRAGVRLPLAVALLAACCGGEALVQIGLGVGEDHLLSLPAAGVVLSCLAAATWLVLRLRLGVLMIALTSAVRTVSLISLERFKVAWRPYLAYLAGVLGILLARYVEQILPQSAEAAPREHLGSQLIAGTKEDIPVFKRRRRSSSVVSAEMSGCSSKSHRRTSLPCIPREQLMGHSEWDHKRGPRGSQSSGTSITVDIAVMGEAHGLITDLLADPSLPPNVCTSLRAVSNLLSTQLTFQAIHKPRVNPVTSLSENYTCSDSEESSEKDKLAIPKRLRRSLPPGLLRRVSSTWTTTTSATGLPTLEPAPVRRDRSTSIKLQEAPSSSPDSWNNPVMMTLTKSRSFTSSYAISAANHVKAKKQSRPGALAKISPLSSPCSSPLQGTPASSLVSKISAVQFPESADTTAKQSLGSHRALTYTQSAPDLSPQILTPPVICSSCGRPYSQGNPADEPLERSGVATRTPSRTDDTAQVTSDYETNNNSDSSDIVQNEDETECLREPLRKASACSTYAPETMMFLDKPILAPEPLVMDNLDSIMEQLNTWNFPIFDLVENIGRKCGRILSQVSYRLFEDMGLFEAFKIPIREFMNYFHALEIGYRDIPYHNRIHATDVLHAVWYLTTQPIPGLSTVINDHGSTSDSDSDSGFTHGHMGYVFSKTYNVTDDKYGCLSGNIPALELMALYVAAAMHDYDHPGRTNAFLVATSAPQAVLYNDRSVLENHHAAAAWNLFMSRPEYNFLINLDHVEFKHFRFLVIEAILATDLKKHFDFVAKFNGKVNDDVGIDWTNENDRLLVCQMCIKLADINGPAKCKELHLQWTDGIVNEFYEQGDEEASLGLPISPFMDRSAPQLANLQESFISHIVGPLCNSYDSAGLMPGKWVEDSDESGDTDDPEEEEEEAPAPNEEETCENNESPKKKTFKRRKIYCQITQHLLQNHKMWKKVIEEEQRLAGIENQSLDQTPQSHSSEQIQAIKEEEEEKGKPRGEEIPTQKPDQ

// below: answered compounds
Cc1cc(C2=NNC(=O)CC2)ccc1-c1cc(F)c(F)cc1F    180 nM
Cc1cc(C2=NNC(=O)CC2)ccc1-c1cc(F)cc(F)c1    200 nM
N#Cc1cccc(-c2ccc(C3=NNC(=O)CC3)cc2F)c1    95 nM
Cc1cc(C2=NNC(=O)CC2)ccc1-c1cn[nH]c1    72 nM
CCc1ccccc1-c1ccc(C2=NNC(=O)CC2)cc1F    370 nM

List the reported IC50 of each compound below.
1. Cc1cc(C2=NNC(=O)CC2)ccc1-c1cccnc1
2. O=C1CCC(c2ccc(N3CCOCC3)c(F)c2)=NN1
3. COc1ccccc1-c1ccc(C2=NNC(=O)CC2)cc1C

1. 65 nM
2. 210 nM
3. 42 nM

Record IC50 for all entries; do not skip any.
1. Cc1ccncc1-c1ccc(C2=NNC(=O)CC2)cc1F
2. Cc1ccc(-c2ccc(C3=NNC(=O)CC3)cc2F)cc1

56 nM
385 nM
